# TEST_SYSTEM: ADP-ribosyl cyclase/cyclic ADP-ribose hydrolase 1 (Homo sapiens, UniProt P28907)
# Sequence (P28907 whole entry): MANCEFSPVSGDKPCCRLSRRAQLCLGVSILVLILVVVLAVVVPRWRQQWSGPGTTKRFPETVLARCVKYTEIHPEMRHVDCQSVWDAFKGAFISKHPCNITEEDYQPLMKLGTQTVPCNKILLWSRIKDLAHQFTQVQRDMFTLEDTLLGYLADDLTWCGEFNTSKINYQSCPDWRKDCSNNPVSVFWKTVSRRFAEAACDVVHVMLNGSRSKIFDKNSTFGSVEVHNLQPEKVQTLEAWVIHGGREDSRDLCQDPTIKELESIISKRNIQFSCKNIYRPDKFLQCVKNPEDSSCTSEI
# EXPERIMENTAL_PROTOCOL: Inhibition of recombinant human CD38 extracellular domain expressed in Pichia pastoris using NAD as substrate pretreated for 30 mins followed by substrate addition measured after 15 to 45 mins
pIC50: −log10 of the molar value.
Rule: pIC50 of 6 or more gives class 1; anything lower gives class 0.

CN(Cc1ccn[nH]1)c1nc(NCc2c(F)cccc2C(F)(F)F)c2cccc(C(N)=O)c2n1 | class 0

Can CC1(C)c2[nH]nc(N)c2CN1C1=NC(NCc2c(F)cccc2C(F)(F)F)c2cccc(C(N)=O)c2N1 (configuration not stated) be said to have pIC50 at or above 6?
class 1

Can NC(=O)c1cccc2c1NC(N1Cc3[nH]nc(N)c3C1)=NC2NCc1c(F)cccc1C(F)(F)F (configuration not stated) be said to have pIC50 at or above 6?
class 1

Can CC[C@H]1c2[nH]ncc2CN1C1=NC(NCc2c(F)cccc2C(F)(F)F)c2cccc(C(N)=O)c2N1 (some centres not stated) be said to have pIC50 at or above 6?
class 1

Can NC(=O)c1cccc2c1NC(N1Cc3c(N)n[nH]c3C13CC3)=NC2NCc1c(F)cccc1C(F)(F)F (configuration not stated) be said to have pIC50 at or above 6?
class 1

Can NC(=O)c1cccc2c1NC(N1Cc3[nH]nc(C(F)(F)F)c3C1)=NC2NCc1c(F)cccc1C(F)(F)F (configuration not stated) be said to have pIC50 at or above 6?
class 0

Can CC[C@@H]1c2[nH]ncc2CN1C1=NC(NCc2c(F)cccc2C(F)(F)F)c2cccc(C(N)=O)c2N1 (some centres not stated) be said to have pIC50 at or above 6?
class 1

Can NC(=O)c1cccc2c1NC(N1Cc3c(N)n[nH]c3C13CCC3)=NC2NCc1c(F)cccc1C(F)(F)F (configuration not stated) be said to have pIC50 at or above 6?
class 1

Can Cc1n[nH]c2c1CN(C1=NC(NCc3c(F)cccc3C(F)(F)F)c3cccc(C(N)=O)c3N1)C2 (configuration not stated) be said to have pIC50 at or above 6?
class 1

Can "NC(=O)c1cccc2c(NCc3c(F)cccc3C(F)(F)F)nc(N3CCc4cn[nH]c4C3)nc12" be said to have pIC50 at or above 6?
class 0

Can "NC(=O)c1cccc2c(NCc3c(F)cccc3C(F)(F)F)nc(NCc3c[nH]cn3)nc12" be said to have pIC50 at or above 6?
class 0

Can C[C@H](O)c1n[nH]c2c1CN(C1=NC(NCc3c(F)cccc3C(F)(F)F)c3cccc(C(N)=O)c3N1)C2 (some centres not stated) be said to have pIC50 at or above 6?
class 1

Can C[C@H]1c2n[nH]cc2CN1C1=NC(NCc2c(F)cccc2C(F)(F)F)c2cccc(C(N)=O)c2N1 (some centres not stated) be said to have pIC50 at or above 6?
class 1

Can C[C@H]1c2cn[nH]c2CN1C1=NC(NCc2c(F)cccc2C(F)(F)F)c2cccc(C(N)=O)c2N1 (some centres not stated) be said to have pIC50 at or above 6?
class 0

Can C[C@@H]1c2cn[nH]c2CN1C1=NC(NCc2c(F)cccc2C(F)(F)F)c2cccc(C(N)=O)c2N1 (some centres not stated) be said to have pIC50 at or above 6?
class 1

Can NC(=O)c1cccc2c1NC(N1Cc3[nH][nH]c(=O)c3C1)=NC2NCc1c(F)cccc1C(F)(F)F (configuration not stated) be said to have pIC50 at or above 6?
class 0

Can "NC(=O)c1cccc2c(NCc3c(F)cccc3C(F)(F)F)nc(N3CCc4[nH]ncc4C3)nc12" be said to have pIC50 at or above 6?
class 1
